experiment: Efflux ratio of apparent permeability across basolateral to apical side over apical to basolateral side in human Caco-2 cells; assay type: ADME, cell-based
Property Name: efflux ratio
Numbers only.

Task item: Any idea what its efflux ratio is? The compound is COCCc1ccc(OCC(O)CNC(C)C)cc1 (stereo unspecified) [METOPROLOL]
Reply: 1.1

* * *

experiment: Apparent permeability across apical to basolateral side in human Caco-2 cells; assay type: ADME, cell-based
Property Name: Papp A→B (nm/s)
Answers are plain numbers, in nm/s.

Task item: Any idea what its Papp A→B is? The compound is COCCc1ccc(OCC(O)CNC(C)C)cc1 (stereo unspecified)
Reply: 314

* * *

Give measured log10(IC50) for each item. Keep answers brief.
molecular target: N6-adenosine-methyltransferase catalytic subunit (Homo sapiens, UniProt Q86U44); assay: Inhibition of METTL3 (unknown origin)
Sequence (Q86U44 whole entry): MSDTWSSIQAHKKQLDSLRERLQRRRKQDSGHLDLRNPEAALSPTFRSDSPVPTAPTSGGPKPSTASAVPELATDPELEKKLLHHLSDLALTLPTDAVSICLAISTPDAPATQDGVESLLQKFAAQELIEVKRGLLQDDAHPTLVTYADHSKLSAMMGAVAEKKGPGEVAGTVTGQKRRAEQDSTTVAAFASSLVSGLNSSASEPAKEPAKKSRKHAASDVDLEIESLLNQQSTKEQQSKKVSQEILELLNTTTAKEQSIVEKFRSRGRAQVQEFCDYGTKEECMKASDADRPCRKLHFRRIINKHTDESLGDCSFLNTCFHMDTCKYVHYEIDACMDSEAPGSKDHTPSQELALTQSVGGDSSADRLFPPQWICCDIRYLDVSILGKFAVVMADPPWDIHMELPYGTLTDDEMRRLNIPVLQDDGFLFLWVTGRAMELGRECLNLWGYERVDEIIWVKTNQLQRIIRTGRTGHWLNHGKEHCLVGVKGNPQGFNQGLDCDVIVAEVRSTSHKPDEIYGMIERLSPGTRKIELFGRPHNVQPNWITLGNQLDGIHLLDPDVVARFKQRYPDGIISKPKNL
Please interpret these as log10 of IC50 where IC50 is in µM.

Reference set, count: 4
{"columns": ["Compound", "log10(IC50)"],
 "data": [
  ["Nc1ncnc2c1ncn2[C@@H]1O[C@H](C(=O)NCCCCN2CCCC2)[C@@H](O)[C@H]1O", 0.94],
  ["CNC1CCC(O)(Cn2cnc3c(N)ncnc32)C(O)C1 (configuration not stated)", 1.99],
  ["Nc1ncnc2c1ncn2[C@@H]1O[C@H](CO)[C@@H](O)[C@H]1O [ADENOSINE]", 2.69],
  ["CN1CCC(NC(=O)[C@H]2O[C@@H](n3cnc4c(N)ncnc43)[C@H](O)[C@@H]2O)CC1", 1.81]
]}

Below: the item to evaluate.
Task item: Any idea what its log10(IC50) is? The compound is Nc1ncnc2c1ncn2[C@@H]1O[C@H](C(=O)NCCCNC(=O)c2ccccn2)[C@@H](O)[C@H]1O
Reply: 2.52

* * *

target: N6-adenosine-methyltransferase catalytic subunit (Homo sapiens, UniProt Q86U44); assay: Inhibition of METTL3 (unknown origin) assessed as remaining activity at 500 uM relative to control
Give measured Activity for each item. Keep answers brief.
Give bare numbers, in %.

Give one value of Activity per listed compound.
1. Nc1ncnc2c1ncn2[C@@H]1O[C@H](C(=O)NCCCNC(=O)c2ccccn2)[C@@H](O)[C@H]1O
2. CN1CCC(NC(=O)[C@H]2O[C@@H](n3cnc4c(N)ncnc43)[C@H](O)[C@@H]2O)CC1
3. CNC1CCC(O)(Cn2cnc3c(N)ncnc32)C(O)C1 (centres undefined)
4. Nc1ncnc2c1ncn2C[C@H]1OC[C@@H](N)[C@H](O)[C@@H]1O

Reply:
[38, 18, 20, 107]
